# Assayed system: GSK 3α (Homo sapiens (Human), UniProt P49840)
# Sequence (P49840 whole entry): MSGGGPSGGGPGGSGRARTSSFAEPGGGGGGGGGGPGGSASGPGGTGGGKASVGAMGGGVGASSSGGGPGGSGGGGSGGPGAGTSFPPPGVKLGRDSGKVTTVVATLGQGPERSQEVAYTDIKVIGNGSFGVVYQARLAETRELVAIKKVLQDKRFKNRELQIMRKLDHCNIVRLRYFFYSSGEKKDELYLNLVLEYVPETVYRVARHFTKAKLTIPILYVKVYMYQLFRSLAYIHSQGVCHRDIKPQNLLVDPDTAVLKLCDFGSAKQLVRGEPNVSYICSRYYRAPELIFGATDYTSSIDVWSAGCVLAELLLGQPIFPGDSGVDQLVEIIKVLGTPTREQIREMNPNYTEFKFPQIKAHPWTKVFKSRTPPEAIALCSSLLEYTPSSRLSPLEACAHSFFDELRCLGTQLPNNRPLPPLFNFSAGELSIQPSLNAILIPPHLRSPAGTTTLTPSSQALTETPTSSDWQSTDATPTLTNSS
Measured quantity: IC50

INSERT INTO results (line_notation, measured_quantity, reading) VALUES
  ('COc1cc(Nc2cc(Oc3ccc(NC(=O)Nc4cc(C(C)(C)C)cc(NS(C)(=O)=O)c4OC)c4ccccc34)ccn2)cc(C(=O)NCCN2CCNCC2)c1', 'IC50', '249 nM');
